experiment: Single-dose intravenous HCQ pharmacokinetics in dogs; assay type: in vivo, Beagle dogs; conditions: both sexes, beagle, dog, 10 mg/kg/day, single day, whole blood, read-out: AUC0-23
measuredMetric: AUC(0-t) (ng·h/mL)

CCN(CCO)CCCC(C)Nc1ccnc2cc(Cl)ccc12 (stereo not shown) [HCQ, hydroxychloroquine]: 30900

###

Experiment: Single-dose intravenous HCQ pharmacokinetics in rats
Format: in vivo
Details: both sexes, rat, whole blood; rats, intravenous, 10 mg/kg/day; 2-compartment model; read-out: Apparent Terminal t1/2 (converted)
Description: Twelve rats per dose group (six M: six F) received hydroxychloroquine sulfate, USP as an intravenous bolus injected over 30 minutes. Following the single injection, blood samples were drawn from rat pairs at one, three, six, 12, 24, 36, 48, 192, 360, and 1,032 hours.
measuredMetric: half-life (h)

CCN(CCO)CCCC(C)Nc1ccnc2cc(Cl)ccc12 (stereo not shown) [HCQ, hydroxychloroquine]: 7.4

Data provenance is patent US20040220220A1.
